Where these numbers come from: PubChem BioAssay (EPA / NIEHS)

- protocol: BSK_3C_Proliferation: Cell Proliferation Assessment in the BioMAP Diversity Plus: 3C Assay (AID 2283006)
- measurement-parameters: primary human endothelial cells (HUVEC)
Calls of active or inactive are those of the source. The calls were made as follows: active = hit-call score of the fitted dose curve at least 0.9, where 1 is the maximum; inactive = score below 0.9.
Hi there, use one of these labels in your reply, thanks! true (active), false (inactive)

Consider the worked cases shown below.
>>> class_label("CC(=O)OCCOCCOCCOC(C)=O")
"false"
>>> class_label("CCCCCCOCCO")
"false"

Which outcome did this test record for the compound "Cc1c(C(=O)O)c(O)cc2c1C(=O)c1c(O)c([C@@H]3O[C@H](CO)[C@@H](O)[C@H](O)[C@H]3O)c(O)c(O)c1C2=O" ?
false

Which outcome did this test record for the compound "NS(=O)(=O)c1cc2c(cc1Cl)NCNS2(=O)=O" ?
false

Which outcome did this test record for the compound "COc1ccc(C)cc1N" ?
false

Which outcome did this test record for the compound "Cc1oc(-c2ccccc2)nc1CCOc1cccc2c1ccn2CCC(=O)O" ?
false

Which outcome did this test record for the compound "CCCCCCC(=O)OCC" ?
false

Which outcome did this test record for the compound "O=C(OCCCCCOC(=O)c1ccccc1)c1ccccc1" ?
true

Which outcome did this test record for the compound CCCCC(CC)COC(=O)CC(C(=O)OCC(CC)CCCC)S(=O)(=O)O (centres undefined) ?
true

Which outcome did this test record for the compound "COc1cc(-c2nc(NC(=O)c3cc4cc(C)cc(C)c4n3CC(=O)O)sc2CCC2CCCCC2)c(OC)cc1Cl" ?
true

Which outcome did this test record for the compound "Cc1ccc(N(C)C)cc1" ?
false

Which outcome did this test record for the compound "CCCCN(CCCC)CCCC" ?
false

Which outcome did this test record for the compound "C=CCOC(=O)c1ccccc1C(=O)OCC=C" ?
false

Which outcome did this test record for the compound "Cc1cc(=O)[nH]c(=S)[nH]1" ?
false

Which outcome did this test record for the compound "Nc1ccccc1N" ?
true

Which outcome did this test record for the compound "COCCOCCOC" ?
false

Which outcome did this test record for the compound "CNCc1cc(F)ccc1Oc1ccc(Cl)c(Cl)c1" ?
true

Which outcome did this test record for the compound "Nc1nc(N)c2nc(CNc3ccc(C(=O)N[C@@H](CCC(=O)O)C(=O)O)cc3)cnc2n1" ?
false

Which outcome did this test record for the compound Cc1nc(-c2ccc3c(c2)CCN(CCC2CCC(NC(=O)/C=C/c4ccc(F)cc4)CC2)CC3)no1 (centres undefined) ?
true

Which outcome did this test record for the compound "c1cc(-c2ccncc2)ccn1" ?
false

Which outcome did this test record for the compound "CCNc1cccc(C)c1" ?
false

Which outcome did this test record for the compound "CN[C@H]1CC[C@@H](c2ccc(Cl)c(Cl)c2)c2ccc(S(N)(=O)=O)cc21" ?
true

Which outcome did this test record for the compound CC1(C)CC(N=C=O)CC(C)(CN=C=O)C1 (centres undefined) ?
false
